# protocol details: Determination of half life in serum: cleavage of promoieties from capped D-amino acid model peptides
# Type: in vitro ADME
# recorded conditions: 100% serum, 37° C.; read-out: t 1/2 (h), cleavage of promoiety linked to N terminus of model peptide X-G-dI-dV-dE-dQ-dA-dA (converted)
Square brackets hold non-standard residues; d marks the D form. Peptide text beside a SMILES is read from it. * marks the point of attachment. X16 = C[C@H](N)c1nc(SCC(=O)NCCNC(=O)OCC2c3ccccc3-c3ccccc32)cn1[C@@H](C)C(=O)*; X14 = NCCc1ccccc1C(=O)*
// reported half-life for each item listed
// return numeric value only (unit: h, not printed)

Query block: Which half-life value belongs to CC[C@@H](C)[C@@H](NC(=O)CNC(=O)[C@H](C)n1cc(SCC(=O)NCCNC(=O)OCC2c3ccccc3-c3ccccc32)nc1[C@H](C)N)C(=O)N[C@@H](C(=O)N[C@H](CCC(=O)O)C(=O)N[C@H](CCC(N)=O)C(=O)N[C@H](C)C(=O)N[C@H](C)C(=O)O)C(C)C (X16-G[dI][dV][dE][dQ][dA][dA]-OH) ?
Result block: 72.3

New cases:
Query block: Requested read-out: half-life. Entry: CC[C@@H](C)[C@@H](NC(=O)CNC(=O)c1ccccc1CCN)C(=O)N[C@@H](C(=O)N[C@H](CCC(=O)O)C(=O)N[C@H](CCC(N)=O)C(=O)N[C@H](C)C(=O)N[C@H](C)C(=O)O)C(C)C (X14-G[dI][dV][dE][dQ][dA][dA]-OH)
Result block: 106
